Biological target: HisACAT1/FLAG (recombinant hACAT1) (Homo sapiens, UniProt P35610, M1L)
Construct: hACAT1 contains 550 amino acids; made in house
Test: Ligand binding by change in intrinsic (tryptophan) fluorescence of HisACAT1/FLAG
Conditions: excitation 295 nm, peak 330 nm
Description: Fluorescence measurements were generated using an ISS PC1 photocounting fluorescence spectrophotometer (model 90095). This instrument has continuously reproducible slits ranging from 0.4 to 32 nm band-pass. The excitation slit width was set at 2 nm. The wavelength for excitation was set at 295 nm in order to minimize the contribution of tyrosine residues to the fluorescence. […] Fluorescence was monitored within 15 seconds of adding the enzyme. […]
OBSERVABLE: maximal increase in fluorescence peak height with respect to unliganded ACAT1 protein

{"columns": ["CHEMICAL_SMILES", "TESTED_SYSTEM", "MEASURED_RESULT"],
 "data": [
  ["CCCCCCCCCCCCCCCCCC(=O)SCCNC(=O)CCNC(=O)[C@H](O)C(C)(C)COP(=O)(O)OP(=O)(O)OC[C@H]1O[C@@H](n2cnc3c(N)ncnc32)[C@H](O)[C@@H]1OP(=O)(O)O", "HisACAT1/FLAG (recombinant hACAT1) (Homo sapiens, UniProt P35610, M1L)", "5%"]
]}

###

target: histidine-tagged recombinant human ACAT1 (Homo sapiens, UniProt P35610, M1L); construct: hACAT-1 cDNA (nucleotide residues 1397-3046, a total of 550 amino acids); made in house; partially purified on a nickel column; assay: Steroid (pregnenolone/DHEA/E2) esterification in mixed micelles, ACAT1 as enzyme source; type: biochemical; settings: ACAT1; sterol at 0.32 mM; 1 μM [3H]-pregnenolone
OBSERVABLE: activation of pregnenolone esterification by sterol

{"columns": ["COMPOUND", "MEASURED_RESULT"],
 "data": [
  ["CC(C)CCC[C@@H](C)[C@H]1CC[C@H]2[C@@H]3[C@H](O)C=C4C[C@@H](O)CC[C@]4(C)[C@H]3CC[C@]12C [7-alpha-OH-cholesterol]", "least activation"],
  ["CC(C)CC[C@@H](O)[C@@H](C)[C@H]1CC[C@H]2[C@@H]3CC=C4C[C@@H](O)CC[C@]4(C)[C@H]3CC[C@]12C [22R-hydroxy-cholesterol]", "least activation"]
]}

###

Target: HisACAT1/FLAG (recombinant hACAT1) (Homo sapiens, UniProt P35610, M1L)
Construct: hACAT1 contains 550 amino acids
Sequence (P35610 1-550 M1L): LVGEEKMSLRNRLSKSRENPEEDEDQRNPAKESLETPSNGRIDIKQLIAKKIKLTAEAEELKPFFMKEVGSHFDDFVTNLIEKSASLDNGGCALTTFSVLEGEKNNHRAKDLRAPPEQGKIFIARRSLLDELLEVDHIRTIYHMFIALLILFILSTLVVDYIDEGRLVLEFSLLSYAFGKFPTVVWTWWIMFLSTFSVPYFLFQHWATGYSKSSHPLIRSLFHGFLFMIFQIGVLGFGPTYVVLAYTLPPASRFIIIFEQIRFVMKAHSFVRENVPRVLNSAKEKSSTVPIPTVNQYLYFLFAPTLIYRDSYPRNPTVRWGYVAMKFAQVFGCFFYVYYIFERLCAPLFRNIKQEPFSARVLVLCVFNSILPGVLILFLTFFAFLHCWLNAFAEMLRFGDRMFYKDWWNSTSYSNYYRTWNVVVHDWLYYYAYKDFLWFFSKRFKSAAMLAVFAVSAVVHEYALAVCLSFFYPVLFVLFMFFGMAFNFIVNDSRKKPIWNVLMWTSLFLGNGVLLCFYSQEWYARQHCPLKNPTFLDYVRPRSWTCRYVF
Assay: Ligand binding by change in intrinsic (tryptophan) fluorescence of HisACAT1/FLAG
Conditions: simple bimolecular dissociation equilibrium, PRISM; read-out: dissociation constant
pKd: −log10 of the molar value.

{"columns": ["COMPOUND", "pKd"],
 "data": [
  ["CCCCCCCC/C=C\\CCCCCCCC(=O)SCCNC(=O)CCNC(=O)[C@H](O)C(C)(C)COP(=O)(O)OP(=O)(O)OC[C@H]1O[C@@H](n2cnc3c(N)ncnc32)[C@H](O)[C@@H]1OP(=O)(O)O [oleoyl-CoA]", 5.72]
]}

###

biological target: HisACAT1/FLAG (recombinant hACAT1) (Homo sapiens, UniProt P35610, M1L); construct: hACAT1 contains 550 amino acids; assay: Ligand binding by change in intrinsic (tryptophan) fluorescence of HisACAT1/FLAG; conditions: ligand 10 to 600 μM; read-out: concentration that caused half-maximal spectral change
pEC50: −log10 of the molar value.
OBSERVABLE: pEC50

{"columns": ["CHEMICAL_SMILES", "TESTED_SYSTEM", "MEASURED_RESULT"],
 "data": [
  ["CC(C)CCC[C@@H](C)[C@H]1CC[C@H]2[C@@H]3CC=C4C[C@@H](O)CC[C@]4(C)[C@H]3CC[C@]12C", "HisACAT1/FLAG (recombinant hACAT1) (Homo sapiens, UniProt P35610, M1L)", 4.46]
]}

These measurements were taken from patent US8673587B2.
